Values from paper PMC7601585

target-or-test-system: AlboD7L1 (Aedes albopictus, UniProt Q5MIW7)
Sequence (Q5MIW7 22-332 limits assumed): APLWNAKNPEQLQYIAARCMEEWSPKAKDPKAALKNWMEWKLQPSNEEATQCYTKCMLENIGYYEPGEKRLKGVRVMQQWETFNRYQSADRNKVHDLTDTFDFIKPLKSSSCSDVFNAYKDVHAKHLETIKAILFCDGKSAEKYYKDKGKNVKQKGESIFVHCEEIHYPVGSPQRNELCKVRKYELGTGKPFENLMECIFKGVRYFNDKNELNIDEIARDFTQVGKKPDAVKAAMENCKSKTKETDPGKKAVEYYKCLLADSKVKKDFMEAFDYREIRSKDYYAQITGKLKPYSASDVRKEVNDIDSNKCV
pKd: −log10 of the molar value.
Property: pKd; scope: individual compounds

{"compound": "NCCc1ccc(O)c(O)c1", "target-or-test-system": "AlboD7L1 (Aedes albopictus, UniProt Q5MIW7)", "pKd": 7.96}
{"compound": "NCCc1c[nH]c2ccc(O)cc12", "target-or-test-system": "AlboD7L1 (Aedes albopictus, UniProt Q5MIW7)", "pKd": 8.35}
{"compound": "NCCc1c[nH]c2ccccc12", "target-or-test-system": "AlboD7L1 (Aedes albopictus, UniProt Q5MIW7)", "pKd": 6.24}
{"compound": "NC[C@H](O)c1ccc(O)c(O)c1 [Norepinephrine, norepinephrine]", "target-or-test-system": "AlboD7L1 (Aedes albopictus, UniProt Q5MIW7)", "pKd": 8.44}
{"compound": "CCCCCC(O)C=CC1C2CC(CO2)C1CC=CCCCC(=O)O (stereo not shown)", "target-or-test-system": "AlboD7L1 (Aedes albopictus, UniProt Q5MIW7)", "pKd": 6.02}
{"compound": "CNC[C@H](O)c1ccc(O)c(O)c1 [Epinephrine, epinephrine]", "target-or-test-system": "AlboD7L1 (Aedes albopictus, UniProt Q5MIW7)", "pKd": 5.39}
{"compound": "NCCc1c[nH]cn1", "target-or-test-system": "AlboD7L1 (Aedes albopictus, UniProt Q5MIW7)", "pKd": 6.56}

---

target-or-test-system: AlboD7L1 (Aedes albopictus, UniProt Q5MIW7)
Construct: made in house; host or cells: Escherichia coli BL21 (DE3) pLysS
measurement-protocol: biochemical
Assay type: binding
details: ITC, 30 °C, TBS pH 7.4, single-site model, N fixed = 1
endpoint-label: −TΔS (kcal/mol)

{"compound": "CCCCC/C=C\\C\\C=C/C=C/C=C/[C@@H](SC[C@H](NC(=O)CC[C@H](N)C(=O)O)C(=O)NCC(=O)O)[C@@H](O)CCCC(=O)O [LTC4]", "unit-text": "kcal/mol", "numeric-readout": -2.05}
{"compound": "NCCc1ccc(O)c(O)c1 [Dopamine, dopamine]", "unit-text": "kcal/mol", "numeric-readout": 1.23}
{"compound": "NCCc1c[nH]c2ccccc12 [Tryptamine, tryptamine]", "unit-text": "kcal/mol", "numeric-readout": -2.23}
{"compound": "CCCCC/C=C\\C\\C=C/C=C/C=C/[C@@H](SC[C@H](N)C(=O)NCC(=O)O)[C@@H](O)CCCC(=O)O [LTD4]", "unit-text": "kcal/mol", "numeric-readout": -3.98}
{"compound": "CCCCC/C=C\\C[C@@H](O)/C=C/C=C/C=C\\[C@@H](O)CCCC(=O)O [LTB4, leukotriene B4]", "unit-text": "kcal/mol", "numeric-readout": -6.23}
{"compound": "CCCCCC(O)C=CC1C2CC(CO2)C1CC=CCCCC(=O)O (stereo not drawn) [U-46619]", "unit-text": "kcal/mol", "numeric-readout": 0.189}

---

Property: −TΔS; scope: individual compounds
target-or-test-system: AlboD7L1 (Aedes albopictus, UniProt Q5MIW7)
Construct: made in house; host or cells: Escherichia coli BL21 (DE3) pLysS
measurement-protocol: biochemical
Format: binding
details: ITC, 30 °C, TBS pH 7.4, single-site model, N fixed = 1
Experimental: To identify the potential biological function of AlboD7L1, isothermal titration calorimetry (ITC) was used to determine its binding affinities to putative ligands that are known to affect inflammation and hemostasis (biogenic amines, leukotrienes, and thromboxane A2). Measurements were performed on a MicroCal VP-ITC (Malvern Panalytical, Westborough, MA, USA) at 30 °C and stir speed at 286 rpm. […]

{"compound": "CCCCC/C=C\\C\\C=C/C=C/C=C/[C@@H](SC[C@H](N)C(=O)O)[C@@H](O)CCCC(=O)O", "−TΔS, kcal/mol": -4.69}
{"compound": "NC[C@H](O)c1ccc(O)c(O)c1 [Norepinephrine, norepinephrine]", "−TΔS, kcal/mol": -0.116}
{"compound": "NCCc1c[nH]cn1", "−TΔS, kcal/mol": -1.63}
{"compound": "NCCc1c[nH]c2ccc(O)cc12", "−TΔS, kcal/mol": 2.13}
{"compound": "CNC[C@H](O)c1ccc(O)c(O)c1 [Epinephrine, epinephrine]", "−TΔS, kcal/mol": -0.637}
